These entries and their values trace back to patent US6677436.

target_under_test: T1, human tissue factor (TF) on human bladder carcinoma cells J82 (human, UniProt P13726 33-295)
T1 construct: whole, on cells; J82 is described as a TF-high expression cell line; also called the antigen; J82 (ATCC HTB-1)
measurement_protocol: cell ELISA on fixed J82 cells
endpoint: binding result

| binder | data_value |
| --- | --- |
| H chain humanized version e/L chain chimeric antibody (antibody, V domains shown, Expressed from vector N5KG4P (IgG4-type, human Cgamma4 and Ckappa); also called e-ch; hHve-chLv/N5KG4P) VH: QVQLLESGAVLARPGTSVKISCKASGFNIKDYYMHWVKQRPGQGLEWIGGNDPANGHSMYDPKFQGRVSITADESTKIAYMELNSLRSEDTAVYFCARDSGYAMDYWGQGTLVTVSS VL: DIKMTQSPSSMYASLGERVTITCKASQDIKSFLSWYQQKPWKSPKTLIYYATSLADGVPSRFSGSGSGQDYSLTINNLESDDTATYYCLQHGESPYTFGGGTKLEIK | binds |
| H chain humanized version i/L chain humanized version b1 antibody (antibody, V domains shown, Expressed from vector N5KG4P (IgG4-type, human Cgamma4 and Ckappa); also called i-b1; hHvi-hLvb1/N5KG4P) VH: QVQLLESGAVLARPGTSVKISCKASGFNIKDYYMHWVKQRPGQGLEWIGGNDPANGHSMYDPKFQGRVTITADTSTSTVFMELSSLRSEDTAVYYCARDSGYAMDYWGQGTLVTVSS VL: DIQMTQSPSSLSASVGDRVTITCKASQDIKSFLSWFQQKPGKSPKTLIYYATSLADGVPSRFSGSGSGTDYTLTISSLQPEDFATYYCLQHGESPYTFGGGTKVEIK | binds |
| H chain humanized version b3/L chain humanized version b antibody (antibody, V domains shown, Expressed from vector N5KG4P (IgG4-type, human Cgamma4 and Ckappa); also called b3-b; hHvb3-hLvb/N5KG4P) VH: QVQLLESGAVLARPGTSVKISCKASGFNIKDYYMHWVRQAPGQGLEWIGGNDPANGHSMYDPKFQGRVTITADTSTNTAYMELSSLRSEDTAIYYCARDSGYAMDYWGQGTLVTVSS VL: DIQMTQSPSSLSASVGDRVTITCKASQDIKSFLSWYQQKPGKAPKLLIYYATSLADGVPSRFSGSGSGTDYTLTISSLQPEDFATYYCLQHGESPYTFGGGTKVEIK | binds |
